A collection of compounds and their measured EC50
# System: MMP13 in SW1353 cells
# experimentalProtocol: OSM/IL-1β signaling assay (MMP13 levels in SW1353 cells);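 note: secreted MMP13 captured by antibody, activated with APMA and its activity read by fluorescence, inhibition scaled between vehicle-treated triggered wells (0%) and untriggered wells (100%)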
# Format: cell-based
# experimentalSetup: Homo sapiens; SW1353 cells, OSM and IL-1β triggered, MMP13 levels 48 hours after triggering; read-out: MMP13 EC50

| compound | measuredOn | measurement |
| --- | --- | --- |
| O=C(Cc1ccc(-c2cccc3nc(NC(=O)C4CC4)nn23)cc1)Nc1cccnc1 | MMP13 in SW1353 cells | > 1000 nM |
| CC1CC(C)CN(C(=O)c2ccc(-c3cccc4nc(NC(=O)C5CC5)nn34)cc2)C1 (stereo not shown) | MMP13 in SW1353 cells | > 1000 nM |
| CC(=O)Nc1ccc(COc2ccc(-c3cccc4nc(NC(=O)C5CC5)nn34)cc2)cc1 | MMP13 in SW1353 cells | > 1000 nM |

Switching to the query record.
Q. Item under review: CN(CCc1ccccc1)C(=O)c1ccc(-c2cccc3nc(NC(=O)C4CC4)nn23)cc1 . Reported EC50?
A. > 1000 nM

====

# experimentalProtocol: Caco2 permeability (bi-directional)
# Format: in vitro ADME, human
# experimentalSetup: human, pH 7.4; Caco-2, apical to basolateral; read-out: Papp (A2B)
measuredParameter: Papp A→B at 1 h, 10 µM (×10⁻⁶ cm/s)
Answer in ×10⁻⁶ cm/s, number only, no unit symbol.

Worked cases, Papp A→B at 1 h, 10 µM given:
| smilesEntry | measuredParameter | measurement |
| --- | --- | --- |
| O=C(Nc1nc2cccc(-c3ccc(OCc4ncon4)cc3)n2n1)C1CC1 | Papp A→B at 1 h, 10 µM | 38.9 |
| O=C(CCOc1ccccc1)Nc1ccc(-c2cccc3nc(NC(=O)C4CC4)nn23)cc1 | Papp A→B at 1 h, 10 µM | 27.7 |
| O=C(Cc1ccc(-c2cccc3nc(NC(=O)C4CC4)nn23)cc1)Nc1cccnc1 | Papp A→B at 1 h, 10 µM | 0.3 |
| O=C(Nc1nc2cccc(-c3ccc(CN4CCC(F)(F)CC4)cc3)n2n1)C1CC1 | Papp A→B at 1 h, 10 µM | 36.5 |
| Cc1n[nH]c(C)c1CCOc1ccc(-c2cccc3nc(NC(=O)C4CC4)nn23)cc1 | Papp A→B at 1 h, 10 µM | 10.9 |

Q. Item under review: O=C(Nc1nc2cccc(-c3ccc(NS(=O)(=O)CCc4ccccc4)cc3)n2n1)C1CC1 . Reported Papp A→B at 1 h, 10 µM?
A. 8.14

Q. Item under review: NC(=O)c1ccccc1NCc1ccc(-c2cccc3nc(NC(=O)C4CC4)nn23)cc1 . Reported Papp A→B at 1 h, 10 µM?
A. 6.55

Q. Item under review: O=C(Nc1nc2cccc(-c3ccc(C(=O)N4CCCCC4)cc3)n2n1)C1CC1 . Reported Papp A→B at 1 h, 10 µM?
A. 11.4

====

# experimentalProtocol: Microsomal stability, human liver microsomes
# Assay type: in vitro ADME
# experimentalSetup: percentage of compound remaining after 60 minutes, 3 μM compound
measuredParameter: Microsomal Stability Human (%)

Worked cases, Microsomal Stability Human (%) given:
| compound | measuredParameter | measurement |
| --- | --- | --- |
| O=C(Cc1ccc(-c2cccc3nc(NC(=O)C4CC4)nn23)cc1)Nc1cccnc1 [Compound 316] | Microsomal Stability Human (%) | *** (*** 51-75) |
| O=C(CCc1ccccc1)Nc1ccc(-c2cccc3nc(NC(=O)C4CC4)nn23)cc1 [Compound 109] | Microsomal Stability Human (%) | * (* 0-25) |
| O=C(Nc1nc2cccc(-c3ccc(C(=O)N4CCC(C(F)(F)F)CC4)cc3)n2n1)C1CC1 [Compound 148] | Microsomal Stability Human (%) | *** (*** 51-75) |
| Cc1cc(COc2ccc(-c3cccc4nc(NC(=O)C5CC5)nn34)cc2)no1 [Compound 52] | Microsomal Stability Human (%) | * (* 0-25) |
| O=C(NCCc1ccccc1)c1ccc(-c2cccc3nc(NC(=O)C4CC4)nn23)c(F)c1 [Compound 111] | Microsomal Stability Human (%) | ** (** 26-50) |
| O=C(Nc1nc2cccc(-c3ccc(CN4CCOCC4)cc3)n2n1)C1CC1 [Compound 18] | Microsomal Stability Human (%) | **** (**** 76-100) |
| O=C(Nc1nc2cccc(-c3ccc(CC(=O)N4CCC(C(F)(F)F)CC4)cc3)n2n1)C1CC1 [Compound 319] | Microsomal Stability Human (%) | * (* 0-25) |
| CC1CN(C(=O)c2ccc(-c3cccc4nc(NC(=O)C5CC5)nn34)cc2)CC(C)O1 (stereo not drawn) [Compound 215] | Microsomal Stability Human (%) | **** (**** 76-100) |
| O=C(Nc1nc2cccc(-c3ccc(OCc4ccccc4)nc3)n2n1)C1CC1 [Compound 57] | Microsomal Stability Human (%) | ** (** 26-50) |
| O=C(Nc1nc2cccc(-c3ccc(OCc4ccc[n+]([O-])c4)cc3)n2n1)C1CC1 [Compound 196] | Microsomal Stability Human (%) | **** (**** 76-100) |

Q. Item under review: O=C(Nc1nc2cccc(-c3ccc(OCc4cccnc4)cc3)n2n1)C1CC1 [Compound 36] . Reported Microsomal Stability Human (%)?
A. * (* 0-25)

Q. Item under review: O=C(Nc1nc2cccc(-c3ccc(CNc4ccccn4)cc3)n2n1)C1CC1 [Compound 244] . Reported Microsomal Stability Human (%)?
A. * (* 0-25)

Q. Item under review: O=C(Nc1nc2cccc(-c3ccc(OCCn4cccn4)cc3)n2n1)C1CC1 [Compound 98] . Reported Microsomal Stability Human (%)?
A. ** (** 26-50)

Q. Item under review: CC1CCCN(C(=O)c2ccc(-c3cccc4nc(NC(=O)C5CC5)nn34)cc2)C1 (stereo not drawn) [Compound 145] . Reported Microsomal Stability Human (%)?
A. *** (*** 51-75)

Cited source: patent US10206907B2
